Observed pIC50 values for UniProtKB O14965 are listed in what follows.
Sequence (O14965 whole entry): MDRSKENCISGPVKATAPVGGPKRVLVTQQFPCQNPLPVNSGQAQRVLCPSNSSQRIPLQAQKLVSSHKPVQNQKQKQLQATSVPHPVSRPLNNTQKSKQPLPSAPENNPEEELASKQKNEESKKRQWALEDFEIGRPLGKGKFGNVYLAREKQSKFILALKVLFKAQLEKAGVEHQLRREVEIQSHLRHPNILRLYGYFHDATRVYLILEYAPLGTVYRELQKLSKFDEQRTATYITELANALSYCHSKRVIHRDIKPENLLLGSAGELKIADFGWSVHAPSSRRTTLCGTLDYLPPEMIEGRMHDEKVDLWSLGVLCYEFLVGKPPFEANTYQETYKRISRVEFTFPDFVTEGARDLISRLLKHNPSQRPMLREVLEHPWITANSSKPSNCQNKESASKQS
// pIC50 is dimensionless: -log10 of concentration (M)

# example entries with known answers
1. CC1(C)CN(c2ccc(-c3oc(-c4ccc(Cl)c5[nH]ccc45)nc3C(N)=O)cc2)CCN1
7.47
2. NC(=O)c1nc(-c2cccc3[nH]ccc23)oc1-c1ccc(N2CCNCC2)cc1 [Example M-12, reference compound]
7.12
3. Cc1ccc2[nH]ccc2c1-c1nc(C(N)=O)c(-c2ccc(N3CCNC(C)(C)C3)cc2)o1
7.87

I looked up "Cc1cc(C)c2[nH]ccc2c1-c1nc(C(N)=O)c(-c2ccc(N3CCNC(C)(C)C3)cc2)o1" and its pIC50 for UniProtKB O14965 was 7.05

I looked up "Cc1cc(F)c2[nH]ccc2c1-c1nc(C(N)=O)c(-c2ccc(N3CCNC(C)(C)C3)cc2)o1" and its pIC50 for UniProtKB O14965 was 7.37

----------
# test: Caco-2 permeability assay
# Assay type: in vitro ADME
# test parameters: human, B2A, read-out: Caco2 B2A Papp
test readout: Papp B→A (×10⁻⁶ cm/s)
Answer format: numeric, ×10⁻⁶ cm/s implied, no suffix.

1) CC1(C)CN(c2ccc(-c3oc(-c4c(F)ccc5[nH]ccc45)nc3C(N)=O)cc2)CCN1 [Example 1]
22.8
2) CC1(C)CN(c2ccc(-c3oc(-c4ccc(C(F)(F)F)c5[nH]ccc45)nc3C(N)=O)cc2)CCN1 [Example 12]
1.21

Given item Cc1c[nH]c2cccc(-c3nc(C(N)=O)c(-c4ccc(N5CCNC(C)(C)C5)cc4)o3)c12 [Example 8] , the value recorded as its Papp B→A is 9.19

Given item CCc1ccc2[nH]ccc2c1-c1nc(C(N)=O)c(-c2ccc(N3CCNC(C)(C)C3)cc2)o1 [Example 9] , the value recorded as its Papp B→A is 3.59

Given item NC(=O)c1nc(-c2cccc3[nH]ccc23)oc1-c1ccc(N2CCNCC2)cc1 [Example M-12, reference compound] , the value recorded as its Papp B→A is 58.3

----------
# test: Caco-2 permeability assay
# Type: in vitro ADME
# test parameters: human, B2A, read-out: Caco2 B2A Papp
test readout: Papp B→A (nm/s)
Answer format: numeric, nm/s implied, no suffix.

# example entries with known answers
1. Cc1cc(F)c2[nH]ccc2c1-c1nc(C(N)=O)c(-c2ccc(N3CCNC(C)(C)C3)cc2)o1
22.6
2. CC1(C)CN(c2ccc(-c3oc(-c4ccc(F)c5[nH]ccc45)nc3C(N)=O)cc2)CCN1
77.6
3. CC1(C)CN(c2ccc(-c3oc(-c4ccc(Cl)c5[nH]ccc45)nc3C(N)=O)cc2)CCN1
27.6

Turning now to a further record.
Given item "CCc1ccc(-c2nc(C(N)=O)c(-c3ccc(N4CCNC(C)(C)C4)cc3)o2)c2cc[nH]c12" , the value recorded as its Papp B→A is 23.5

----------
# target system: Aurora B kinase (Homo sapiens (Human))
# Sequence (Q96GD4 whole entry): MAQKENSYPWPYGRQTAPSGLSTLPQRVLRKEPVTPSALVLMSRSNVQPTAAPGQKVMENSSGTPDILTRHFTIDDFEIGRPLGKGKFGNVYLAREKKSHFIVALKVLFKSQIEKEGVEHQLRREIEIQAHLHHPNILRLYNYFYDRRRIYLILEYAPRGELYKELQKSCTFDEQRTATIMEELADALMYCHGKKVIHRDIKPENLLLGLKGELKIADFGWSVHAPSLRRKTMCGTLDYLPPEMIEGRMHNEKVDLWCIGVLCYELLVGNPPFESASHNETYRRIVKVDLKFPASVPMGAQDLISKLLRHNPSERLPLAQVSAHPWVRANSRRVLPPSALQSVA
# test: Aurora B kinase 33P-ATP filter assay (Reaction Biology Corp.)
# Type: biochemical
test readout: IC50 (nM)
Answer format: numeric, nM implied, no suffix.

1) Cc1ccc2[nH]ccc2c1-c1nc(C(N)=O)c(-c2ccc(N3CCNC(C)(C)C3)cc2)o1 [Example 2]
5.9
2) NC(=O)c1nc(-c2cccc3[nH]ccc23)oc1-c1ccc(N2CCNCC2)cc1 [Example M-12, reference compound]
13
3) CC1(C)CN(c2ccc(-c3oc(-c4cccc5[nH]ccc45)nc3C(N)=O)cc2)CCN1 [Example 11]
15.2

Given item CC1(C)CN(c2ccc(-c3oc(-c4c(F)ccc5[nH]ccc45)nc3C(N)=O)cc2)CCN1 [Example 1] , the value recorded as its IC50 is 24.3

Given item CC1(C)CN(c2ccc(-c3oc(-c4ccc(C(F)(F)F)c5[nH]ccc45)nc3C(N)=O)cc2)CCN1 [Example 12] , the value recorded as its IC50 is 14
